# assay_comment: qHTS assay to identify small molecule antagonists of the retinoic acid receptor (RAR) signaling pathway (AID 1159552; note: nearly all actives have a fitted effect of over 50% in size)
# condition_set: C3RL4 RARE luciferase reporter, retinol-stimulated, 6 h; series mostly up to 92.4 µM
Records with an inconclusive call do not appear. Calls of active or inactive are those of the source. Calls come from the whole dose curve; as a rule, active = well fitted inhibition curve with a large enough effect in the repeat runs; inconclusive = weak or mixed curves, or effect the other way; inactive = no such curve, though single readings can be large or run the other way.
Possible outcomes: YES = active, NO = inactive

>  <compound>
Cc1cccc2cccnc12

>  <class_name>
NO

$$$$
>  <compound>
CC(CCc1ccccc1)NCC(O)c1ccc(O)c(C(N)=O)c1 (configuration not stated)

>  <class_name>
NO

$$$$
>  <compound>
COC(=O)Nc1nc2ccc(C(=O)c3ccccc3)cc2[nH]1

>  <class_name>
NO

$$$$
>  <compound>
O=[N+]([O-])c1ccc(O)cc1C(F)(F)F

>  <class_name>
NO

$$$$
>  <compound>
O=c1oc2cc(O)ccc2c2oc3cc(O)ccc3c12

>  <class_name>
NO

$$$$
>  <compound>
CCCC(=O)OC(C)(C)Cc1ccccc1

>  <class_name>
NO

$$$$
>  <compound>
Cc1ccc(O)c(N)c1

>  <class_name>
NO

$$$$
>  <compound>
CCCC[P+](C)(CCCC)CCCC

>  <class_name>
NO

$$$$
>  <compound>
Cc1cc(C(C)(C)C)cc(C)c1CC1=NCCN1

>  <class_name>
NO

$$$$
>  <compound>
O=C1NC(=O)[C@@H]2CC=CC[C@H]12

>  <class_name>
NO

$$$$
>  <compound>
COc1cc(/C=C/c2ccccc2)oc(=O)c1

>  <class_name>
NO

$$$$
>  <compound>
CCC(C)[O-].CCC(C)[O-].CCOC(=O)/C=C(/C)[O-].[Al+3]

>  <class_name>
NO

$$$$
>  <compound>
CCOC(=O)NNc1ccc(N(CC)CC(C)O)nn1 (configuration not stated)

>  <class_name>
NO

$$$$
>  <compound>
Clc1ccnc(Cl)n1

>  <class_name>
NO

$$$$
>  <compound>
O=C1CCCCCCCCCCCCCCCO1

>  <class_name>
NO

$$$$
>  <compound>
OC12N=C(c3ccccc3)SC1Cc1cc(Cl)ccc12 (configuration not stated)

>  <class_name>
NO

$$$$
>  <compound>
CC1(C)CCC[C@]2(C)[C@H]3CCO[C@]3(C)CC[C@@H]12

>  <class_name>
NO

$$$$
>  <compound>
c1cnccn1

>  <class_name>
NO

$$$$
>  <compound>
CC(=O)OCC=C(C)C

>  <class_name>
NO

$$$$
>  <compound>
C=Cc1ccccc1C=C

>  <class_name>
NO

$$$$
>  <compound>
Cc1ccc(-c2ccccc2)cc1

>  <class_name>
NO

$$$$
>  <compound>
Cc1cc(C)c(/C=C2\C(=O)Nc3ccccc32)[nH]1

>  <class_name>
NO

$$$$
>  <compound>
O=S(=O)(O)c1ccccc1/C=C/c1ccc(-c2ccc(/C=C/c3ccccc3S(=O)(=O)O)cc2)cc1

>  <class_name>
NO

$$$$
>  <compound>
COC(C)=O

>  <class_name>
NO

$$$$
>  <compound>
O=C(/C=C/c1ccccc1)OC/C=C/c1ccccc1

>  <class_name>
NO

$$$$
>  <compound>
O=C1CCc2ccc(OCCCCN3CCN(c4cccc(Cl)c4Cl)CC3)cc2N1

>  <class_name>
NO

$$$$
>  <compound>
CCC(CC)C(C)CCOC(C)=O (configuration not stated)

>  <class_name>
NO

$$$$
>  <compound>
CN(C)Cc1cc(C(C)(C)C)c(O)c(C(C)(C)C)c1

>  <class_name>
NO

$$$$
>  <compound>
CNC(=O)c1ccccc1Sc1ccc2c(/C=C/c3ccccn3)n[nH]c2c1

>  <class_name>
NO

$$$$
>  <compound>
C=Cc1cccc(C)c1

>  <class_name>
NO

$$$$
>  <compound>
Nc1ccc(Oc2ccc(Cl)cc2)cc1

>  <class_name>
NO

$$$$
>  <compound>
O=C(O)CCN(C1(C(=O)NO)CCCC1)S(=O)(=O)c1ccc(Oc2ccc(F)cc2)cc1

>  <class_name>
NO

$$$$
>  <compound>
O=c1[nH]c(=O)n([C@H]2C[C@H](O)[C@@H](CO)O2)cc1F

>  <class_name>
NO

$$$$
>  <compound>
Oc1ccccc1O

>  <class_name>
NO

$$$$
>  <compound>
CC[C@H](C)COC(=O)/C=C/c1ccc(N=Cc2ccc(OC)cc2)cc1

>  <class_name>
NO

$$$$
>  <compound>
COc1ccc(-c2coc3cc(O)ccc3c2=O)cc1

>  <class_name>
NO

$$$$
>  <compound>
CC(C)=CCC1=C(O)c2ccccc2C(=O)C1=O

>  <class_name>
NO

$$$$
>  <compound>
Cc1c2ccccc2c(C)c2c1ccc1ccccc12

>  <class_name>
NO

$$$$
>  <compound>
CCCCCCCC

>  <class_name>
NO

$$$$
>  <compound>
COC(=O)c1ccccc1C

>  <class_name>
NO

$$$$
>  <compound>
C#C[C@]1(O)CC[C@H]2[C@@H]3[C@H](C)CC4=C(CCC(=O)C4)[C@H]3CC[C@@]21C

>  <class_name>
YES

$$$$
>  <compound>
CCCCCCOC(=O)C(C)CC (configuration not stated)

>  <class_name>
NO

$$$$
>  <compound>
Cc1cccc(C(=O)O)c1O

>  <class_name>
NO

$$$$
>  <compound>
CCc1oc2ccccc2c1C(=O)c1cc(I)c(O)c(I)c1

>  <class_name>
NO

$$$$
>  <compound>
Nc1ccc(C(=O)O)c(O)c1

>  <class_name>
NO

$$$$
>  <compound>
CN(C)[C@@H](CCOc1cccc2ccccc12)c1ccccc1

>  <class_name>
YES

$$$$
>  <compound>
Cc1nc2n(c(=O)c1CCN1CCC(c3noc4cc(F)ccc34)CC1)CCCC2

>  <class_name>
NO

$$$$
